List of normalized growth values.
Experiment: chemical genetic growth profiling, strain panel (AID 1159580);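 also: tested at 20 µM; growth read once vehicle control cultures reached saturation at 30 °C; 1 = growth at the plate median or of vehicle wells; lower values mean less growth of the strain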
Settings: S. cerevisiae deletion strains, growth OD, locus YMR307W, strain GAS1, hits give low values
The whole screen tested about 5,500 compounds, of which about 2,000 (36%) were called active. Roughly 18% stayed inconclusive and do not appear here. Some of the results follow.
measured parameter: normalized growth

| compound | reading |
| --- | --- |
| CC(=O)OC1CC(OC(C)=O)C2(C)C(CC(OC(C)=O)C3(C)C4=CC(=O)OC(=O)C4(C)CCC32)C1(C)C (centres undefined) | 0.916 |
| CC(=O)OC1CC[C@@]2(C)C(CC[C@]3(C)C2CCC2C4CC(C)(C)CCC4(C(=O)O)CC[C@]23C)C1(C)C (some centres undefined) | 1.25 |
| CC1(C)CC[C@]2(C(=O)O)CC[C@]3(C)C(=CCC4[C@@]5(C)CC[C@H](O)[C@@](C)(CO)C5CC[C@]43C)C2C1 (some centres undefined) | 0.931 |
| Clc1cc(I)cc(Cl)c1NC1=NCCN1 | 0.987 |
